Reference for the values: ChEMBL document CHEMBL5579809

target.or.system: Protein cereblon/Histone acetyltransferase p300 (Homo sapiens) (UniProt Q09472+Q96SW2)
Sequence (Q09472 2-2414 limits assumed): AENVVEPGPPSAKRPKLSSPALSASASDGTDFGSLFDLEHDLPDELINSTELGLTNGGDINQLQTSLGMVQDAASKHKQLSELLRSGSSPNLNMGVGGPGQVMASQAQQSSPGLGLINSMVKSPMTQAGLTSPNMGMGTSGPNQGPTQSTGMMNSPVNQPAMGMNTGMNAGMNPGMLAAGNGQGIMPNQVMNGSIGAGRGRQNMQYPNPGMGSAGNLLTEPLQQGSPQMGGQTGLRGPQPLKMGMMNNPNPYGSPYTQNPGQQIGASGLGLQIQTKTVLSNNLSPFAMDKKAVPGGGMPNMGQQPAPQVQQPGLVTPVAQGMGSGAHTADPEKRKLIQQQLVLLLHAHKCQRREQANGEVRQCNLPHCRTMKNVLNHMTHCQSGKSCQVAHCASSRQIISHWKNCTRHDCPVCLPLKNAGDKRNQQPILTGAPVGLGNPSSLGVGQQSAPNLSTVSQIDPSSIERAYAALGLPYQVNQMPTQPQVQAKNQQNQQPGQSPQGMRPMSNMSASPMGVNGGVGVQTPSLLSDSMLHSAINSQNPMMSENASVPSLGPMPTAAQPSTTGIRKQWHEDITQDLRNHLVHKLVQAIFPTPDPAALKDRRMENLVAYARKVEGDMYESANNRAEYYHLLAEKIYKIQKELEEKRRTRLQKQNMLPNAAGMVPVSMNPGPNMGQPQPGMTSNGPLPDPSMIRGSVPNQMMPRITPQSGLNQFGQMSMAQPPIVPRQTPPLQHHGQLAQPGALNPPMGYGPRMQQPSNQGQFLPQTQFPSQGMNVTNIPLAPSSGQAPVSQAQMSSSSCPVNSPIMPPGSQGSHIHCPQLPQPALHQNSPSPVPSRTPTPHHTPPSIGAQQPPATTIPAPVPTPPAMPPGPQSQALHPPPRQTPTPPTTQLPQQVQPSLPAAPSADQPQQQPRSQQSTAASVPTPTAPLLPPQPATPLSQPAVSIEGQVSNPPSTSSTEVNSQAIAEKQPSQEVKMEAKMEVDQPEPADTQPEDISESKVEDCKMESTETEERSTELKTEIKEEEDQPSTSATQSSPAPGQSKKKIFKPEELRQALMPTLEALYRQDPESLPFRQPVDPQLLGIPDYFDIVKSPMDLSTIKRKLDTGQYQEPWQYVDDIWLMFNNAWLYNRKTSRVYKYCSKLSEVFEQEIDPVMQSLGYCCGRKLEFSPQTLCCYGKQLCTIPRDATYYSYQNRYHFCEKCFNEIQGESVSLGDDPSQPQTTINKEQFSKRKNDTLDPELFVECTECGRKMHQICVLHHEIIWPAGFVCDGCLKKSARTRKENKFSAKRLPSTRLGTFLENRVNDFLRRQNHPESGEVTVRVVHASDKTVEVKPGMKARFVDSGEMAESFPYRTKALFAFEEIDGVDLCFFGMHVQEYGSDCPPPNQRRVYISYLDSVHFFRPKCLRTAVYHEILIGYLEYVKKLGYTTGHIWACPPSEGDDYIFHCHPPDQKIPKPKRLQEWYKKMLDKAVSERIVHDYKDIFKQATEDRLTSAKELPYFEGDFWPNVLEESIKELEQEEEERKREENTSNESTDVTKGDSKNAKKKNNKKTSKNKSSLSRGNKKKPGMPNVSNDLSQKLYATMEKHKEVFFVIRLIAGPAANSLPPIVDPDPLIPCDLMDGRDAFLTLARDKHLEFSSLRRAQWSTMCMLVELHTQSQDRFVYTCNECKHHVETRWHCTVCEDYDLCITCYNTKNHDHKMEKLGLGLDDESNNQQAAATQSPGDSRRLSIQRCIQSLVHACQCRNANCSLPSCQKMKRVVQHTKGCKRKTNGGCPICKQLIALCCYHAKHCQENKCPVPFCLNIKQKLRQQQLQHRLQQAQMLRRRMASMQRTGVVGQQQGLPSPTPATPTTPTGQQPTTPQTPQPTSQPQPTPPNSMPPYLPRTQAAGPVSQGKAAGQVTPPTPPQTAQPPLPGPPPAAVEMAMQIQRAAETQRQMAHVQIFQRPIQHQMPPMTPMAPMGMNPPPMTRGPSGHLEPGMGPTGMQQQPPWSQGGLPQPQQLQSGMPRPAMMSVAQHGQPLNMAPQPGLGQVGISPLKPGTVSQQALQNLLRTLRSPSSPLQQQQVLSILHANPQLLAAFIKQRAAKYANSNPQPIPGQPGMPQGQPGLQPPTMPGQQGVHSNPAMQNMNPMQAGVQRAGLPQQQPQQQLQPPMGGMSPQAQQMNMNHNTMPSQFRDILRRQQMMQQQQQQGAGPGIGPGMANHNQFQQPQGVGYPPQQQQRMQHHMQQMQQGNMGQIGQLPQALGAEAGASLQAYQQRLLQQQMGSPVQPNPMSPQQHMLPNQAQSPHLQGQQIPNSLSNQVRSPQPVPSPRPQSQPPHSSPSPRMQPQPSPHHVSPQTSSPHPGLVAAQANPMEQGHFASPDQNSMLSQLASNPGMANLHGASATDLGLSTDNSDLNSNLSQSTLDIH
Sequence (Q96SW2 whole entry partner): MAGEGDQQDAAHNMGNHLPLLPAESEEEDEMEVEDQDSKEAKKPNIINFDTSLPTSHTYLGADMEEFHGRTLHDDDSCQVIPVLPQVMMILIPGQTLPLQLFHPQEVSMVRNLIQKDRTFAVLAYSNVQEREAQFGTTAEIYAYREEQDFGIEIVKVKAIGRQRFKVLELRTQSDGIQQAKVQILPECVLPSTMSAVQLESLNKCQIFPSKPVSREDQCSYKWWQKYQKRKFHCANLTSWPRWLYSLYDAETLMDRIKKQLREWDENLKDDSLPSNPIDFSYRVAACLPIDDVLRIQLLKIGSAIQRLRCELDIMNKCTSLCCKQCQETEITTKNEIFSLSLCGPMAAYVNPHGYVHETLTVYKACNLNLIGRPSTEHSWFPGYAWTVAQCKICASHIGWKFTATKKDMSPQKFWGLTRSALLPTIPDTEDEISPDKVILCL
method.description: PROTAC activity at CRBN/HiBiT-tagged p300 in human HAP1 cells assessed as total cumulative degradation by measuring AUC at 1 nM measured over 24 hrs by luminescence based analysis
Type: cell-based
endpoint.name: AUC

[a] CNC(=O)N1CCc2c(c(N3CCN(C(=O)NCCOCCNc4ccc5c(c4)C(=O)N(C4CCC(=O)NC4=O)C5=O)c4cc(-c5cnn(C)c5)c(C(F)(F)F)cc43)nn2C2CCOCC2)C1 (stereo not given)
[b] CNC(=O)N1CCc2c(c(N3CCCc4cc(-c5cnn(C)c5)c(C(F)F)cc43)nn2C2CCN(C(=O)CCOCCOCCOCCOCCOCCOCCNc3ccc4c(c3)C(=O)N(C3CCC(=O)NC3=O)C4=O)CC2)C1 (stereo not given)
Ask | For the pair a and b , which member has the lower AUC number? Mark your answer with the label of the selected entry.
Reply | b

[P] CNC(=O)N1CCc2c(c(N3CCN(C(=O)NCCOCCOCCOCCOCCNc4ccc5c(c4)C(=O)N(C4CCC(=O)NC4=O)C5=O)c4cc(-c5cnn(C)c5)c(C(F)(F)F)cc43)nn2C2CCOCC2)C1 (stereo not given)
[Q] CNC(=O)N1CCc2c(c(N3CCCc4cc(-c5cnn(C)c5)c(C(F)F)cc43)nn2C2CCN(C(=O)CCOCCOCCOCCOCCNc3ccc4c(c3)C(=O)N(C3CCC(=O)NC3=O)C4=O)CC2)C1 (stereo not given)
Ask | Which of the two gives a bigger number for AUC: P or Q ? The response must carry the label of the picked entry.
Reply | P

----------
target.or.system: Protein cereblon/CREB-binding protein (Homo sapiens) (UniProt Q92793+Q96SW2)
method.description: PROTAC activity at CRBN/HiBiT-tagged CBP in human HAP1 cells assessed as total cumulative degradation by measuring AUC at 1 nM measured over 24 hrs by luminescence based analysis
Assay type: cell-based
endpoint.name: AUC

CNC(=O)N1CCc2c(c(N3CCCc4cc(-c5cnn(CC(=O)NCCOCCOCCOCCOCCOCCOCCNc6ccc7c(c6)C(=O)N(C6CCC(=O)NC6=O)C7=O)c5)c(C(F)F)cc43)nn2C2CCOCC2)C1 (stereo not drawn)    23.6
CNC(=O)N1CCc2c(c(N3CCN(C(=O)NCCOCCOCCOCCOCCNc4ccc5c(c4)C(=O)N(C4CCC(=O)NC4=O)C5=O)c4cc(-c5cnn(C)c5)c(C(F)(F)F)cc43)nn2C2CCOCC2)C1 (stereo not drawn)    24.7
CNC(=O)N1CCc2c(c(N3CCN(C(=O)NCCOCCNc4ccc5c(c4)C(=O)N(C4CCC(=O)NC4=O)C5=O)c4cc(-c5cnn(C)c5)c(C(F)(F)F)cc43)nn2C2CCOCC2)C1 (stereo not drawn)    23.9

----------
target.or.system: Protein cereblon/Histone acetyltransferase p300 (Homo sapiens) (UniProt Q09472+Q96SW2)
method.description: PROTAC activity at CRBN/HiBiT-tagged p300 in human HAP1 cells assessed as induction of p300 degradation by measuring maximal efficacy at 10 nM measured over 24 hrs by luminescence based analysis relative to control
Format: cell-based
endpoint.name: Emax (%)

CNC(=O)N1CCc2c(c(N3CCCc4cc(-c5cnn(C)c5)c(C(F)F)cc43)nn2C2CCN(C(=O)CCOCCNc3ccc4c(c3)C(=O)N(C3CCC(=O)NC3=O)C4=O)CC2)C1 (stereo not drawn)    71
CNC(=O)N1CCc2c(c(N3CCCc4cc(-c5cnn(C)c5)c(C(F)(F)F)cc43)nn2C2CCN(C(=O)CCOCCOCCOCCOCCNc3ccc4c(c3)C(=O)N(C3CCC(=O)NC3=O)C4=O)CC2)C1 (stereo not drawn)    82
CNC(=O)N1CCc2c(c(N3CCCc4cc(-c5cnn(CC(=O)NCCOCCOCCOCCOCCNc6ccc7c(c6)C(=O)N(C6CCC(=O)NC6=O)C7=O)c5)c(C(F)F)cc43)nn2C2CCOCC2)C1 (stereo not drawn)    61
